compound: CC(C)(C)Sc1c(CC(C)(C)C(=O)O)n(Cc2ccc(Cl)cc2)c2ccc(OCc3cnccn3)cc12
melting point: 173 to 175 °C
--
compound: CC(C)(C)OC(=O)NCCCn1ncc2cc(Br)ccc2c1=O
melting point: 130 to 132 °C
--
compound: Cc1c(C(=O)O)cnn1-c1nc(-c2cccc(Cl)c2)cs1
melting point: 258 °C
--
compound: COc1ccc(C(=O)Nc2c(Cl)cncc2Cl)cc1OC1CCCC1F (stereo unspecified)
melting point: 167 to 169 °C
--
compound: Cc1cccc2c(C(=O)O)c(O)c(-c3ccc(-c4ccccc4)cc3)nc12
melting point: 178 to 180 °C
--
compound: O=C(C=Cc1ccccc1O)c1ccccc1
melting point: 148 to 149 °C
--
compound: COc1ccc(C(C)c2cc3c(cc2OC)OCO3)cc1 (stereo unspecified)
melting point: 93 to 94 °C
--
compound: Cc1[nH]n(Cc2cccc(C(=O)O)c2)c2nc(-c3ccncc3)nc(=O)c1-2
melting point: > 300 °C
--
compound: CC(C)Oc1ccc(C(=O)c2[nH]c3cc(Cl)ccc3c2CC(=O)O)cc1
melting point: 216 to 218 °C
--
compound: CC(Oc1ccc(N(C)c2nc3cc(Cl)ccc3o2)cc1)C(=O)O (stereo unspecified)
melting point: 152 to 154 °C
--
compound: COc1ccc(-c2cc3ccc(C(=O)O)cc3s2)cc1C12CC3CC(CC(C3)C1)C2
melting point: 305 °C
--
compound: COc1ncnc(-c2cc(N)c(C#N)cc2F)c1Cl
melting point: 186 to 189 °C
--
compound: CSc1nn(C)c(=O)n1Cc1cc(-c2ccccc2)ccc1C
melting point: 95.6 °C
--
compound: COc1cnc(CSc2nc3cc(OC(F)(F)F)ccc3[nH]2)c(C)c1OC
melting point: 94 to 97 °C
--
compound: CC(C)(C)OC(=O)NCCCCCCCCNC(=O)OC(C)(C)C
melting point: 96 to 97 °C
--
compound: CCC1(C)CC(S(=O)Cc2c(F)cccc2F)=NO1 (stereo unspecified)
melting point: < 30 °C
--
compound: C#CCCn1nnc2cc3c(=O)n(C(C)Cn4cnnn4)nnc3cc2c1=O (stereo unspecified)
melting point: 201 to 204 °C
--
compound: CCCn1c(=O)sc2cc(F)c(NC(=O)C=C(CC)NC(=O)OCC)cc21
melting point: 174 to 175 °C
--
compound: CS(=O)(=O)c1ccc(-n2nc(CNC(=O)NC34CC5CC(CC(C5)C3)C4)cc2-c2ccccc2)cc1
melting point: 150 to 155 °C
--
compound: COC(=O)CC1c2ccccc2C(=O)N1c1ccc(Cl)cn1 (stereo unspecified)
melting point: 110 to 111 °C
--
compound: OCC1CCC(O)C1O (stereo unspecified)
melting point: 157 to 159 °C

----------
The reader will find reported melting point values listed item by item below.
quantityKind: melting point

compound: CCCc1nc(Cl)c(-c2ccc(C)cc2)c(NS(=O)(=O)c2ccc(C(C)(C)C)cc2)n1
quantityKind: melting point
observed: 138 to 139 °C

compound: O=c1[nH]cnc2cc[nH]c12
quantityKind: melting point
observed: > 300 °C

compound: COc1ccc(S(=O)(=O)c2ccc(OC)c(CC3CO3)c2)cc1CC1CO1 (centres undefined)
quantityKind: melting point
observed: 105 to 108 °C

compound: CCOC(=O)c1c(C(F)F)nc(C(F)(F)F)c(C(=O)OCC)c1NC(C)(C)C
quantityKind: melting point
observed: 30 to 31 °C

compound: O=C(COc1cccc2cccnc12)c1ccc(Cl)cc1
quantityKind: melting point
observed: 111 to 112 °C

compound: CN(C)c1ccc(-c2nnc(S)nc2-c2ccc(N(C)C)cc2)cc1
quantityKind: melting point
observed: 276 to 279 °C

compound: COc1ccc(CN2Cc3c(C(N)=O)ncn3-c3ccc(Cl)cc3C2=O)c(OC)c1
quantityKind: melting point
observed: > 220 °C

compound: COc1ccc(-c2cc(SC(F)(F)F)[nH]c2-c2ccc(OC)cc2)cc1
quantityKind: melting point
observed: 114 to 115 °C

compound: C=CCNc1nc(NC(C)C)nc2ccc([N+](=O)[O-])cc12
quantityKind: melting point
observed: 150 to 151 °C

compound: COC(=O)c1ccccc1S(=O)(=O)NC(=O)c1ccc2c(C)cc(C)nn12
quantityKind: melting point
observed: 200 to 202 °C

compound: CC(C)(CC1CCCC1)NC(=O)CN1C(=O)c2ccccc2C1=O
quantityKind: melting point
observed: 159 to 160 °C

compound: C=CC1CC2=CC(=O)CCC2C2CCC3(CC)C(O)CCC3C12 (centres undefined)
quantityKind: melting point
observed: 155 to 156 °C

compound: COc1cc2c(cc1OC)CCN(C(=O)N(C)O)CC2
quantityKind: melting point
observed: 95 to 96 °C

compound: CC(=O)c1ccccc1Nc1nc(Nc2ccc3c(c2)CCCC(=O)N3C)ncc1Cl
quantityKind: melting point
observed: 215 to 217 °C

compound: CC(C)Cn1c(CNC(=O)OC(C)(C)C)c(-c2cccc(F)c2)c2cc(C(=O)O)ccc2c1=O
quantityKind: melting point
observed: 206 to 207 °C

compound: CCOC(=O)CCCCC(=O)OCC1=C(C(=O)OCC)C(c2ccccc2Cl)C(C(=O)OCC)=C(C)N1 (centres undefined)
quantityKind: melting point
observed: 91 to 92 °C

compound: CSc1nncn1-c1ccc(N2C[C@H](CNC(C)=O)OC2=O)cc1F
quantityKind: melting point
observed: 188 to 190 °C

compound: O=C(C1CC1)N1CCC(C2CCc3ccc(O)cc32)CC1 (centres undefined)
quantityKind: melting point
observed: 75 to 82 °C

compound: CNC(=O)c1cccc(F)c1Nc1nc(Nc2ccc3c(c2)N(CCOC)C(=O)CCC3)ncc1Cl
quantityKind: melting point
observed: 199 to 204 °C

compound: Cc1nc(NC(=O)Nc2ccc(F)cc2)sc1C(=O)NCc1ccccc1
quantityKind: melting point
observed: > 300 °C

compound: COc1cc(C)nc(NC(=O)NS(=O)(=O)c2cccnc2Cl)n1
quantityKind: melting point
observed: 165 to 168 °C

compound: CC1(C)CCC(C)(C)c2cc(-c3cc(-c4ccc(C(=O)O)cc4)ccc3-c3ccccc3)ccc21
quantityKind: melting point
observed: 287 to 288 °C

compound: CCC(CC)NC(=O)c1ccc(-c2scc(Br)c2CC(=O)OC)cc1
quantityKind: melting point
observed: 97 to 98 °C

compound: O=C(/C=C/c1cccnc1)NCCc1ccccc1O
quantityKind: melting point
observed: 170 to 172 °C

compound: Cc1noc2cc3c(cc12)C1(CO3)C(=O)N(Cc2ccc(-c3ccno3)cc2)c2ccccc21 (centres undefined)
quantityKind: melting point
observed: 192 to 194 °C

compound: CN(C)C(=O)c1cccnc1S(=O)(=O)Cl
quantityKind: melting point
observed: 114 to 117 °C

compound: N#Cc1ccc(N2C(=O)N(CCCCCN3C(=O)N(c4ccc(C#N)c(C(F)(F)F)c4)C(=O)C34CC4)C3(CC3)C2=O)cc1C(F)(F)F
quantityKind: melting point
observed: 154 to 155 °C

compound: CC(C)(C)CN(CC(O)C(Cc1ccccc1)NC(=O)C(CC(N)=O)NC(=O)c1ccc2ccccc2n1)C(=O)NC(C)(C)C (centres undefined)
quantityKind: melting point
observed: 115 to 117 °C

compound: O=C(CCn1ccnc1)c1c[nH]c2ccccc12
quantityKind: melting point
observed: 194 to 197 °C

compound: O=S(=O)(Nc1ccc(Cl)cc1)C(Cl)=C(Cl)Cl
quantityKind: melting point
observed: 73 to 76 °C

compound: CCCCCCN1CN(C)C=C1C(=O)NCCCCCCOc1ccc(OC)cc1
quantityKind: melting point
observed: 35 to 36 °C

compound: O=C(Nc1ccc2nc(CN3CCCCC3)ccc2c1)c1ccc(-c2ccccc2)cc1
quantityKind: melting point
observed: 186 to 188 °C

compound: O=C1NCCN1S(=O)(=O)c1ccc(F)cc1
quantityKind: melting point
observed: 183 to 185 °C

compound: CCOC(=O)C(=O)Nc1nc2ncn(C)c(=S)n2n1
quantityKind: melting point
observed: 280 to 282 °C

compound: CN1CCN(c2ccc3c(ccc4c(=O)cc(C(=O)Nc5ccc(N6CCOCC6)cc5)oc43)c2)CC1
quantityKind: melting point
observed: 217 to 218 °C

compound: CCOC(=O)CC(NS(=O)(=O)c1cccc(-c2cccc(NC(=NC#N)NCc3ccccn3)c2)c1)c1ccccc1 (centres undefined)
quantityKind: melting point
observed: 82 °C

compound: O=C(O)C(=O)c1cccc(Cl)c1
quantityKind: melting point
observed: 59 to 62 °C

compound: O=S(=O)(CCO)C(F)(F)C(O)(Cn1cncn1)c1ccc(F)cc1F (centres undefined)
quantityKind: melting point
observed: 113 to 115 °C

compound: CC(=O)OCc1ccc(-c2ccccc2-c2nnnn2C(c2ccccc2)(c2ccccc2)c2ccccc2)cc1
quantityKind: melting point
observed: 117 to 119 °C
